Experiment: Distribution coefficient, logD of compound by chromatographic method
Format: physicochemical
Settings: octanol/water
So I've got a bunch of compounds here, and I need their chromatographic logD values.

The recorded chromatographic logD for C[C@@H](N)[C@H]1CC[C@H](C(=O)Nc2ccncc2)CC1 is 1.03

The recorded chromatographic logD for COc1ccc(Cl)c([C@@H](C)NC(=O)N2CCN(c3ccncc3F)C[C@H]2C)c1 is 2.7

The recorded chromatographic logD for COc1cc(F)cc([C@@H](C)NC(=O)N2CCN(c3ccncc3F)C[C@H]2C)c1 is 2.4

The recorded chromatographic logD for C[C@@H]1CN(c2ccncc2F)CCN1C(=O)N[C@H](C)c1cccn2nccc12 is 1.6

The recorded chromatographic logD for COc1cccc([C@@H](C)NC(=O)N2CCN(c3ccncc3F)C[C@H]2C)c1F is 2.3

The recorded chromatographic logD for COc1cccc(CC(=O)Nc2cc(-c3ccnc(F)c3)cs2)c1 is 2.83
